- Tested on: HRV 21
- experiment summary: Cytopathic effect (CPE) inhibition assay
- Assay type: cell-based, human rhinovirus
- applied conditions: Human rhinovirus sp., 72 h; host cell HeLa, 3 days, MEM/2% FBS, MTT assay; read-out: EC50 HRV 21
Collected EC50 values appear next to each entry.

INPUT: Find the recorded EC50 belonging to CC(C)c1ccc2c(c1)OC1(O)c3ccccc3C(=O)C21NC(=O)C(=O)c1ccco1 (stereo not shown) and report it.
OUTPUT: > 10 µg/mL

New cases:
INPUT: Find the recorded EC50 belonging to CC(=O)C(=O)NC12C(=O)c3ccccc3C1(O)Oc1cc(C(C)C)ccc12 (stereo not shown) and report it.
OUTPUT: > 9.02 µg/mL

INPUT: Find the recorded EC50 belonging to CC(C)c1ccc2c(c1)OC1(O)c3ccccc3C(=O)C21NC(=O)C(=O)c1ccccc1 (stereo not shown) and report it.
OUTPUT: > 8.72 µg/mL

INPUT: Find the recorded EC50 belonging to Cc1cc(C)c(C(=O)C(=O)NC23C(=O)c4c(N)cccc4C2(O)Oc2cc(C(C)C)ccc23)c(C)c1 (stereo not shown) and report it.
OUTPUT: > 8.6 µg/mL

INPUT: Find the recorded EC50 belonging to CCNC(=O)OC12C(=O)c3ccccc3C1(OC)Oc1cc(C(C)C)ccc12 (stereo not shown) and report it.
OUTPUT: > 10 µg/mL

INPUT: Find the recorded EC50 belonging to CC(C)c1ccc2c(c1)OC1(O)c3ccccc3C(=O)C21OC(=O)NCCNC(=O)OC(C)(C)C (stereo not shown) and report it.
OUTPUT: > 10 µg/mL

INPUT: Find the recorded EC50 belonging to CC(C)c1ccc2c(c1)OC1(O)c3ccccc3C(=O)C21NC(=O)C(=O)Cc1ccc(O)cc1 (stereo not shown) and report it.
OUTPUT: > 3.76 µg/mL

* * *

- Tested on: HRV 21
- experiment summary: Cytopathic effect (CPE) inhibition assay
- Assay type: cell-based, human rhinovirus
- applied conditions: Human rhinovirus sp., 72 h; host cell HeLa, 3 days, MEM/2% FBS, MTT assay; read-out: EC50 HRV 21
Collected EC50 values appear next to each entry.

// worked examples, EC50 included
INPUT: Find the recorded EC50 belonging to CC(C)c1ccc2c(c1)OC1(O)c3c(cccc3[N+](=O)[O-])C(=O)C21NC(=O)C(=O)c1c[nH]c2ccccc12 (stereo not shown) [Example 8] and report it.
OUTPUT: > 10 µg/mL

INPUT: Find the recorded EC50 belonging to CCOC(=O)C(=O)NC12C(=O)c3c(N)cccc3C1(O)Oc1cc(C(C)C)ccc12 (stereo not shown) [Example 36] and report it.
OUTPUT: > 10 µg/mL

New cases:
INPUT: Find the recorded EC50 belonging to CNC(=O)C(=O)NC12C(=O)c3ccccc3C1(O)Oc1cc(C(C)C)ccc12 (stereo not shown) [Example 27] and report it.
OUTPUT: > 10 µg/mL

INPUT: Find the recorded EC50 belonging to CC(C)c1ccc2c(c1)OC1(O)c3ccccc3C(=O)C21NC(=O)C(=O)CBr (stereo not shown) [Example 41] and report it.
OUTPUT: > 10 µg/mL

INPUT: Find the recorded EC50 belonging to CCCC(=O)C(=O)NC12C(=O)c3c(N)cccc3C1(O)Oc1cc(C(C)C)ccc12 (stereo not shown) [Example 52] and report it.
OUTPUT: > 10 µg/mL

INPUT: Find the recorded EC50 belonging to CC(C)c1ccc2c(c1)OC1(O)c3cccc(N)c3C(=O)C21NC(=O)C(=O)c1c[nH]c2ccccc12 (stereo not shown) [Example 10] and report it.
OUTPUT: > 4.89 µg/mL

INPUT: Find the recorded EC50 belonging to CC(C)c1ccc2c(c1)OC1(O)c3c(cccc3[N+](=O)[O-])C(=O)C21NC(=O)C(=O)CCc1ccccc1 (stereo not shown) [Example 53] and report it.
OUTPUT: > 4.8 µg/mL

INPUT: Find the recorded EC50 belonging to Cc1cc2c(cc1C)C1(NC(=O)C(=O)c3c[nH]c4ccccc34)C(=O)c3ccccc3C1(O)O2 (stereo not shown) [Example 13] and report it.
OUTPUT: > 8.41 µg/mL

INPUT: Find the recorded EC50 belonging to Cc1cc(C)c(C(=O)C(=O)NC23C(=O)c4cccc([N+](=O)[O-])c4C2(O)Oc2cc(C(C)C)ccc23)c(C)c1 (stereo not shown) [Example 51] and report it.
OUTPUT: > 10 µg/mL

INPUT: Find the recorded EC50 belonging to CC(=O)C(=O)NC12C(=O)c3c(N)cccc3C1(O)Oc1cc(C(C)C)ccc12 (stereo not shown) [Example 22] and report it.
OUTPUT: < 10 µg/mL

INPUT: Find the recorded EC50 belonging to CC(C)c1ccc2c(c1)OC1(O)c3ccccc3C(=O)C21NC(=O)CN (stereo not shown) [Example 64] and report it.
OUTPUT: > 10 µg/mL

INPUT: Find the recorded EC50 belonging to CC(C)c1ccc2c(c1)OC1(O)c3ccccc3C(=O)C21NC(=O)C(=O)Cc1ccccc1[N+](=O)[O-] (stereo not shown) [Example 3] and report it.
OUTPUT: > 1.76 µg/mL

INPUT: Find the recorded EC50 belonging to CCOC(=O)C(=O)NC12C(=O)c3ccccc3C1(O)Oc1cc(C(C)C)ccc12 (stereo not shown) [Example 32] and report it.
OUTPUT: > 10 µg/mL

INPUT: Find the recorded EC50 belonging to CC(C)c1ccc2c(c1)OC1(O)c3ccccc3C(=O)C21NC(=O)C(=O)N1CCN(C)CC1 (stereo not shown) [Example 48] and report it.
OUTPUT: > 10 µg/mL

INPUT: Find the recorded EC50 belonging to CC(C)c1ccc2c(c1)OC1(O)c3c(cccc3[N+](=O)[O-])C(=O)C21NC(=O)C(=O)c1ccccc1 (stereo not shown) [Example 16] and report it.
OUTPUT: > 10 µg/mL

INPUT: Find the recorded EC50 belonging to CCCNC(=O)OC12C(=O)c3ccccc3C1(O)Oc1cc(C(C)C)ccc12 (stereo not shown) [Example 18] and report it.
OUTPUT: > 10 µg/mL
